The values you see were collected from ChEMBL document CHEMBL3112455.

These records show pKi for UniProt Q16790.
Formally, pKi is defined as -log10 of the concentration c, with c in mol/L.

QUERY: Report pKi from UniProt Q16790 testing of `Cc1cccc(-n2nnnc2-c2ccc3c(c2)C=CS(=O)(=O)O3)c1`
RESULT: 7.57

QUERY: Answer briefly: pKi recorded on UniProt Q16790 for `O=S1(=O)C=Cc2cc(-c3nnnn3-c3ccc(Cl)c(Cl)c3)ccc2O1`
RESULT: 8.09

QUERY: Look up and report measured pKi (UniProt Q16790) for the following compound: `O=S1(=O)C=Cc2cc(-c3nnnn3-c3ccc(Cl)cc3)ccc2O1`
RESULT: 8.06

QUERY: Please report the measured pKi for `O=S1(=O)C=Cc2cc(-c3nnnn3-c3ccc(C(F)(F)F)cc3)ccc2O1` tested on UniProt Q16790.
RESULT: 7.41

QUERY: Recall the reported pKi of `O=S1(=O)C=Cc2cc(-c3nnnn3-c3cccc(Br)c3)ccc2O1` on UniProt Q16790 and write it down.
RESULT: 7.25

QUERY: Give pKi; test system UniProt Q16790; compound `Cc1ccc(-n2nnnc2-c2ccc3c(c2)C=CS(=O)(=O)O3)cc1`
RESULT: 8.04

QUERY: Provide pKi, recorded with UniProt Q16790, of `COc1ccc(-n2nnnc2-c2ccc3c(c2)C=CS(=O)(=O)O3)cc1`
RESULT: 8.06
